endpoint.name: melting point

compound: Cc1c(Cl)cccc1NC(=O)NCc1ccc2c(c1)CN(C1CCC(=O)NC1=O)C2=O (stereo unspecified)
result: 252 to 254 °C

compound: O=C(O)CCNC(=S)Nc1ccc2cn[nH]c2c1
result: 175 °C

compound: C#CC(C)(O)C1CCC2C3CC=C4CC(OC)CCC4(C)C3CCC21C (stereo unspecified)
result: 175 to 176 °C

compound: COc1ccc(CCS(N)(=O)=S)cc1 (stereo unspecified)
result: 186 to 187 °C

compound: COCC1(N2C(=O)NC(=O)C2=O)C=CC=C(OC2CC(F)CC2Cl)C1 (stereo unspecified)
result: 90 to 91 °C

compound: Nc1cc(C=O)ncc1F
result: 133 to 135 °C

compound: COCNC(=O)NC1CC(C)(C)N(C)C(C)(C)C1
result: 105 °C

compound: Cc1cnc2nc(NS(=O)(=O)c3ccccc3Cl)nn2c1
result: 236 to 239 °C

Which melting point is listed for "COc1cc(C(=O)O)cc(Cl)c1Cl" ?
218 to 219 °C

Which melting point is listed for "O=C(NCc1cc(C(F)(F)F)cc(C(F)(F)F)c1)c1cnc(Cl)nc1Cl" ?
144 to 145 °C

Which melting point is listed for "CCOC(=O)c1c(C(F)(F)F)nc(C(F)F)c(C(=O)OC)c1Cl" ?
24 to 25 °C

Reference source: a melting point compilation (Tetko et al.; mined from patent text by program, amines drawn as free bases though some values may be those of a salt)
